System: OVCAR-4 ovarian
Assay: NCI-60 one-dose screen, 48 h (100 = growth as untreated, 0 = no growth, -100 = all killed)
Details: 10 µM unless noted
About 83,000 compounds went through this panel and 20% of them were active in at least one assay; those are over-represented in the sample as a whole.
recordedMetric: growth (%)
Give the value in % but do not write % after it.

These solved cases illustrate the format of a correct answer.
[[record]]
compound = "CCOc1ccc2nc(SCc3nc4n(n3)S(=O)(=O)c3ccccc3N4C)sc2c1"
unit = "%"
result = 31.2

[[record]]
compound = "COC(=O)Nc1ccc(-c2nc(-c3cccc(OC)c3)c(-c3ccnc(Br)c3)[nH]2)cc1"
unit = "%"
result = 51.5

[[record]]
compound = "NC1=C(c2nn[nH]n2)C(c2ccccc2Cl)c2ccc3ccccc3c2O1 (stereo not given)"
unit = "%"
result = 81.5

[[record]]
compound = "S=C(c1cccs1)N1CCN(c2cccc(Cl)c2)CC1"
unit = "%"
result = 101

[[record]]
compound = "C#C[C@]1(O)CC[C@H]2[C@@H]3CC=C4c5sc(Nc6cc(F)ccc6F)nc5CC[C@]4(C)[C@H]3CC[C@@]21C"
unit = "%"
result = 23

[[record]]
compound = "NCCOc1ncccc1/C=C1\\c2ccccc2-c2ccc(C(F)F)cc21"
unit = "%"
result = 83.9

[[record]]
compound = "CCCCN(C)N=Nc1ccc(C(N)=O)cc1"
unit = "%"
result = 107

[[record]]
compound = "Cc1cc(-c2cc(C)c(N)cc2C)c(C)cc1N"
unit = "%"
result = 117

[[record]]
compound = "O=c1c2cc(C(F)(F)F)ccc2sc2c(NCCCNCCO)nc3ccccc3c12"
unit = "%"
result = -41.6


Now consider the entry below.
growth measured on COc1c(B(O)O)cc(F)cc1-c1nc2ccc3[nH]ncc3c2c2c1CCCC2 = 25.8
